Data origin, for the record: paper PMC10393190

For each of the proteins below, state its stoichiometry N.
# assay.system: the molecule itself
# experimental.protocol: SEC-MALS

protein | stoichiometry N
Mer2 C-terminal half of the coiled coil (residues 138–224) (domain or fragment) KTKSDSSYRQVLVEEISRYNSKITRHVTNKQHETEKSMRCTQEMLFNVGSQLEDVHKVLLSLSKDMHSLQTRQTALEMAFREKADHA | 4
Mer2 N-terminal half of the coiled coil (residues 41–136) (domain or fragment) KVANAGALEESDKQILEWAGKLELESMELRENSDKLIKVLNENSKTLCKSLNKFNQLLEQDAATNGNVKTLIKDLASQIENQLDKVSTAMLSKGDE | 2
Mer2 (residues 161–224) (domain or fragment) TRHVTNKQHETEKSMRCTQEMLFNVGSQLEDVHKVLLSLSKDMHSLQTRQTALEMAFREKADHA | 3

Next protein, please.
Prompt line: Sample HisSUMO-Rec15 coiled-coil domain (residues 1–160) (S. pombe) (domain or fragment) MSYSVSAAQLWSRKLAMQAEDMQQHQKSQSNQIASCLAEMNTKQEVVNQTIGQLGRSISEVQQQNSQLVLQSLNQINMSMQQVALGIQDYASRINKLEQTMSDMNLKFEALQKEQNSNTKTLADCTSQMTIITKKLDAELKKRYMTTKQTRTVQNQTMPR — what was its stoichiometry N?
Response line: 4
